These data points were gathered from PubChem BioAssay (Tox21).

METHOD_NOTES: qHTS assay to identify small molecule agonists of the retinoic acid receptor (RAR) signaling pathway (AID 1159553); also: % is scaled to controls: 0 for no effect and ±100 for the full control effect
APPLIED_CONDITIONS: C3RL4 RARE luciferase reporter, agonist, 6 h; at 73.3 µM (top of the series) unless noted
Results filed as inconclusive are left out. Active and inactive are the calls of the source. Calls follow the shape of the dose curve; as a rule, active = well fitted activation curve with a large enough effect in the repeat runs; inconclusive = weak or mixed curves, or effect the other way; inactive = no such curve, though single readings can be large or run the other way.
Reported values of activation for individual entries

Here are 3 compounds together with their reported answers.
COMPOUND: FC(F)(F)c1ccc(Cl)cc1Cl
ASSAY_VALUE: 0.481% (active)
--
COMPOUND: C=CCCCCCCCCCCC
ASSAY_VALUE: 0.0107% [at 8.36 µM] (inactive)
--
COMPOUND: Nc1ccc(/C=C/c2ccc(N)cc2S(=O)(=O)O)c(S(=O)(=O)O)c1
ASSAY_VALUE: -0.705% [at 0.756 µM] (inactive)

Please examine the following record next.
# input Endpoint output: activation of O=C(O)Cc1cccc(-c2cc(CCCCCCc3ccc(O[C@H]4O[C@H](CO)[C@@H](O)[C@H](O)[C@@H]4O)c(-c4cccc(CC(=O)O)c4)c3)ccc2O[C@H]2O[C@H](CO)[C@@H](O)[C@H](O)[C@@H]2O)c1 . Value?
# output 0.783% [at 0.756 µM] (inactive)

* * *

EXPERIMENTAL_SYSTEM: Estrogen receptor (Homo sapiens)
METHOD_NOTES: qHTS assay to identify small molecule agonists of the estrogen receptor alpha (ER-alpha) signaling pathway using the BG1 cell line (AID 743079); also: nearly all actives have a fitted effect of over 20% in size; as to activation: % is scaled to controls: 0 for no effect and ±100 for the full control effect
APPLIED_CONDITIONS: BG1Luc4E2 cells, ERE-luciferase agonist, 22 h; series mostly up to 70.3 µM
Records with an inconclusive call do not appear. Activity calls are given as the source filed them. Calls come from the whole dose curve; as a rule, active = well fitted activation curve with a large enough effect in the repeat runs; inconclusive = weak or mixed curves, or effect the other way; inactive = no such curve, though single readings can be large or run the other way.
Please state which outcome applies, choosing from active, inactive

Below, 10 compounds whose answers are already recorded.
COMPOUND: COCC(=O)Nc1c(I)c(C(=O)NCC(O)CO)c(I)c(C(=O)N(C)CC(O)CO)c1I (stereo not drawn)
CLASS: inactive

COMPOUND: CC1=NN(c2ccc(S(=O)(=O)O)cc2)C(=O)C1N=Nc1ccccc1 (stereo not drawn)
CLASS: inactive

COMPOUND: COC(=O)CCC(=O)O
CLASS: inactive

COMPOUND: NS(=O)(=O)c1ccc(Cl)c(S(N)(=O)=O)c1
CLASS: inactive

COMPOUND: CCS(=O)(=O)CCn1c([N+](=O)[O-])cnc1C
CLASS: active

COMPOUND: COc1cc([N+](=O)[O-])ccc1N
CLASS: inactive

COMPOUND: Oc1ccccc1Cc1ccccc1O
CLASS: inactive

COMPOUND: C[C@H](CCC(=O)O)[C@H]1CC[C@H]2[C@@H]3[C@H](O)C[C@@H]4C[C@H](O)CC[C@]4(C)[C@H]3C[C@H](O)[C@]12C
CLASS: inactive

COMPOUND: COC(OC)C(C)c1ccccc1 (stereo not drawn)
CLASS: inactive

COMPOUND: Cc1oc(=O)oc1CN1CCN(c2cc3c(cc2F)c(=O)c(C(=O)O)c2n3C(C)S2)CC1 (stereo not drawn)
CLASS: active

# input For COc1ccc(/C=N/NC(=O)c2ccncc2)cc1OC , what call appears in the results of this test?
# output inactive

# input For C=CCOc1c(Br)cc(Br)cc1Br , what call appears in the results of this test?
# output inactive

# input For O=C(Oc1ccccc1C(=O)O)c1ccccc1O , what call appears in the results of this test?
# output active

# input For COc1ccc(NS(=O)(=O)c2ccc(N)cc2)nn1 , what call appears in the results of this test?
# output inactive

# input For Cc1cc(C)cc([N+](=O)[O-])c1 , what call appears in the results of this test?
# output inactive

# input For Cc1ccccc1C , what call appears in the results of this test?
# output inactive

# input For Cc1nc2ccccc2c(=O)o1 , what call appears in the results of this test?
# output inactive

# input For O=CN1CCOCC1 , what call appears in the results of this test?
# output inactive

# input For CCOC(=O)C(C)(C)C , what call appears in the results of this test?
# output inactive

# input For C1=C\CC/C=C\CC/1 , what call appears in the results of this test?
# output inactive

# input For Cc1nc([N+](=O)[O-])cn1-c1ccc([N+](=O)[O-])cc1 , what call appears in the results of this test?
# output inactive

# input For CC1CCC(C(C)(C)S)C(=O)C1 (stereo not drawn) , what call appears in the results of this test?
# output inactive

# input For Cc1cc(O)c2c(c1)C(=O)c1cccc(O)c1C2=O , what call appears in the results of this test?
# output inactive

# input For COC(/C=C(\C)CCC=C(C)C)OC , what call appears in the results of this test?
# output inactive

# input For CCN1CN(CC)CN(CC)C1 , what call appears in the results of this test?
# output inactive

# input For O=C(O)c1c(Cl)ccc(Cl)c1Cl , what call appears in the results of this test?
# output inactive

# input For CC(C)(C)c1ccc(C=O)cc1 , what call appears in the results of this test?
# output inactive

# input For CCCCCCCCC(=O)OCC , what call appears in the results of this test?
# output inactive

* * *

METHOD_NOTES: qHTS assay to identify small molecule agonists of the estrogen receptor beta (ER-beta) signaling pathway - cell viability counter screen (AID 1259380); also: % is scaled to controls: 0 for no effect and ±100 for the full control effect; nearly all actives have a fitted effect of over 30% in size
APPLIED_CONDITIONS: ER-beta-bla HEK293T viability, CellTiter-Glo luminescence, 16 h; series mostly up to 92.4 µM
Results filed as inconclusive are left out. Activity calls are given as the source filed them. The call rests on the fitted dose curve; in most records, active means well fitted cell-killing curve with a large enough effect in the repeat runs; inconclusive means weak or mixed curves, or effect the other way; inactive means flat fitted curve, though single readings scatter.
READOUT_TYPE: activity change, negative = cytotoxicity

COMPOUND: C=C(C)[C@@H]1CC[C@@H](C)C[C@@H]1O
activity change, negative = cytotoxicity: inactive
--
COMPOUND: SCCSCCS
activity change, negative = cytotoxicity: inactive
--
COMPOUND: CC(C)COC(=O)CCCCC(=O)OCC(C)C
activity change, negative = cytotoxicity: inactive
--
COMPOUND: Nc1ccc(S(=O)(=O)NC(=O)c2ccccc2)cc1
activity change, negative = cytotoxicity: inactive
--
COMPOUND: CCOC(=O)C(=O)c1csc(NC=O)n1
activity change, negative = cytotoxicity: inactive
--
COMPOUND: CCCCCC1Nc2cc(C(F)(F)F)c(S(N)(=O)=O)cc2S(=O)(=O)N1 (stereo not drawn)
activity change, negative = cytotoxicity: inactive

# input Endpoint output: activity change, negative = cytotoxicity of Cc1cccc(NC(=S)N(C)C)c1 . Value?
# output inactive

# input Endpoint output: activity change, negative = cytotoxicity of CC(C)SCc1ccco1 . Value?
# output inactive

# input Endpoint output: activity change, negative = cytotoxicity of CC(C)(C)NCCO . Value?
# output inactive

# input Endpoint output: activity change, negative = cytotoxicity of CCN(Cc1cccc(S(=O)(=O)O)c1)c1ccccc1 . Value?
# output inactive

# input Endpoint output: activity change, negative = cytotoxicity of O=C(O)c1ccc(OCCN2CCCCC2)cc1 . Value?
# output inactive

# input Endpoint output: activity change, negative = cytotoxicity of CC(C)COC(=O)/C=C/c1ccccc1 . Value?
# output inactive

* * *

EXPERIMENTAL_SYSTEM: Cytochrome P450 2C19 (Homo sapiens)
METHOD_NOTES: Cytochrome P450 Family 2 Subfamily C Member 19 (CYP2C19) small molecule antagonists: luciferase reporter qHTS assay (AID 1671197); also: % is scaled to controls: 0 for no effect and ±100 for the full control effect; nearly all actives have a fitted effect of over 65% in size
APPLIED_CONDITIONS: P450-Glo CYP2C19 enzyme, luciferin luminescence, 1 h; series mostly up to 115 µM
Inconclusive results are not listed. Calls of active or inactive are those of the source. The call rests on the fitted dose curve; in most records, active means well fitted inhibition curve with a large enough effect in the repeat runs; inconclusive means weak or mixed curves; inactive means no such curve, though single readings can be large or run the other way.
Reported values of activity change, negative = inhibition for individual entries

# input Requested read-out activity change, negative = inhibition, target or system Cytochrome P450 2C19 (Homo sapiens), entry O=C(Nc1cccc(C2=NCCN2)c1)Nc1cccc(C2=NCCN2)c1
# output -6.53% [at 23.6 µM] (inactive)

# input Requested read-out activity change, negative = inhibition, target or system Cytochrome P450 2C19 (Homo sapiens), entry Nc1ccc(/C=C/c2ccc(N)cc2S(=O)(=O)O)c(S(=O)(=O)O)c1
# output 14.7% [at 0.435 µM] (inactive)

# input Requested read-out activity change, negative = inhibition, target or system Cytochrome P450 2C19 (Homo sapiens), entry O=C(O)Cc1cccc(-c2cc(CCCCCCc3ccc(O[C@H]4O[C@H](CO)[C@@H](O)[C@H](O)[C@@H]4O)c(-c4cccc(CC(=O)O)c4)c3)ccc2O[C@H]2O[C@H](CO)[C@@H](O)[C@H](O)[C@@H]2O)c1
# output 11.7% [at 0.435 µM] (inactive)

# input Requested read-out activity change, negative = inhibition, target or system Cytochrome P450 2C19 (Homo sapiens), entry CCCCCCCCCCCCCCCCI
# output -28.1% [at 23.6 µM] (inactive)

# input Requested read-out activity change, negative = inhibition, target or system Cytochrome P450 2C19 (Homo sapiens), entry Nc1c(NC/C=C\COc2cc(CN3CCCCC3)ccn2)c(=O)c1=O
# output -27.3% [at 23.6 µM] (inactive)
